All figures here come from patent US10421718B2.

Molecular target: His-EBNA1 (DNA binding domain of EBNA1, amino acids 459-607) (Epstein-Barr virus, UniProt P03211)
Sequence (P03211 459-607): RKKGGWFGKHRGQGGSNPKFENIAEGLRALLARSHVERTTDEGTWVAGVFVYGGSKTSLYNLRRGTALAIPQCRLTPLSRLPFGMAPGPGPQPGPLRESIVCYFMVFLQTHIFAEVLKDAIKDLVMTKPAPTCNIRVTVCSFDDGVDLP
pIC50: −log10 of the molar value.
measurement_type: pIC50

Worked examples, 10 compounds total:
O=C(O)c1cccc(C#Cc2ccccc2)c1-n1cc(CCCO)nn1 :: 4.00 to 5.00
O=C(O)c1cccc(C#Cc2cscn2)c1-n1cccc1 :: > 6.00
COC(=O)c1cccc(C#Cc2cccc(C(=O)O)c2)c1 :: 3.00 to 4.00
O=C(O)c1cccc(C#Cc2ccccc2)c1-c1cncnc1 :: 3.00 to 4.00
O=C(O)c1cccc(CCc2ccccc2)c1-n1cccc1 :: 4.00 to 5.00
COc1cc(C#Cc2cccc(C(=O)O)c2-c2ccc3cc[nH]c3c2)cc(C(N)=O)c1 :: 5.00 to 6.00
O=C(O)c1cccc(C#CCCCO)c1-c1cnc2ccccc2c1 :: 4.00 to 5.00
COc1ccc(C#Cc2cccc(C(=O)O)c2-n2cccc2)cc1 :: 5.00 to 6.00
O=C(O)c1cccc(C#Cc2ccccc2)c1-c1ccc2occc2c1 :: 4.00 to 5.00
OCc1ccccc1C#Cc1cccc(-c2nnn[nH]2)c1 :: 4.00 to 5.00

As a next step, examine the compound that follows.
Need pIC50 of "O=C(O)c1cc(Cl)cc(C#Cc2ccc(F)cc2)c1-n1cccc1" , thanks.
4.00 to 5.00

====

Target: His-EBNA1 (DNA binding domain of EBNA1, amino acids 459-607) (Epstein-Barr virus, UniProt P03211)
pIC50: −log10 of the molar value.
measurement_type: pIC50

O=C(O)c1cccc(C#Cc2cscn2)c1 :: 4.00 to 5.00
CN1CCOc2cc(-c3c(C#Cc4ccncc4)cccc3C(=O)O)ccc21 :: 4.00 to 5.00

Need pIC50 of "Cc1noc(C)c1-c1c(C#Cc2ccncc2)cccc1C(=O)O" , thanks.
4.00 to 5.00
